Measurement Name: pIC50
Give only the number. pIC50 is defined as minus log10 of concentration in molar units.

For COc1ccc(/C=C/C(O)=C/C(=O)/C=C/c2ccc(O)c(OC)c2)cc1 on Vibrio cholerae sialidase (Vibrio cholerae serotype O1, UniProt P0C6E9), measured pIC50 was 5.38

For COc1ccc(/C=C/C(=O)/C=C(O)/C=C/c2ccc(OC)c(OC)c2)cc1OC on Vibrio cholerae sialidase (Vibrio cholerae serotype O1, UniProt P0C6E9), measured pIC50 was 4.67

For COc1cc(/C=C/C(=O)/C=C(O)/C=C/c2ccc(NC(C)=O)cc2)ccc1O on Vibrio cholerae sialidase (Vibrio cholerae serotype O1, UniProt P0C6E9), measured pIC50 was 5.17

For O=C(C=Cc1ccc(O)c(O)c1)C=C(O)C=Cc1ccc(O)c(O)c1 on Vibrio cholerae sialidase (Vibrio cholerae serotype O1, UniProt P0C6E9), measured pIC50 was 4.92

For COc1cc(/C=C/C(O)=C/C(=O)/C=C/c2ccc(OC)c(OC)c2)ccc1O on Vibrio cholerae sialidase (Vibrio cholerae serotype O1, UniProt P0C6E9), measured pIC50 was 4.93

For COc1cc(/C=C/C(=O)/C=C(O)/C=C/c2ccc(O)c(O)c2)ccc1O on Vibrio cholerae sialidase (Vibrio cholerae serotype O1, UniProt P0C6E9), measured pIC50 was 5.57

For COc1cc(/C=C/C(=O)/C=C(O)/C=C/c2ccc([N+](=O)[O-])cc2)ccc1O on Vibrio cholerae sialidase (Vibrio cholerae serotype O1, UniProt P0C6E9), measured pIC50 was 5.16

For COc1cc(/C=C/C(=O)/C=C(O)/C=C/c2ccc(O)c(OC)c2)ccc1O on Vibrio cholerae sialidase (Vibrio cholerae serotype O1, UniProt P0C6E9), measured pIC50 was 5.28

For COc1cc(C=CC(O)=C2CCCC(=Cc3ccc(O)c(OC)c3)C2=O)ccc1O on Vibrio cholerae sialidase (Vibrio cholerae serotype O1, UniProt P0C6E9), measured pIC50 was 4.60

* * *

Measurement Name: melting point

# melting point (compound: COc1ccc(/C=C/C(=O)/C=C(O)/C=C/c2ccc(O)c(O)c2)cc1O ) is 203 to 204 °C

# melting point (compound: COc1cc(/C=C/C(=O)/C=C(O)/C=C/c2ccc(N3CCCCC3)cc2)ccc1O ) is 204 to 205 °C

# melting point (compound: COc1cc(/C=C/C(=O)/C=C(O)/C=C/c2ccc(F)cc2)ccc1O ) is 146 to 147 °C

# melting point (compound: O=C(C=Cc1ccc(O)c(O)c1)C=C(O)C=Cc1ccc(O)c(O)c1 ) is 300 °C (dec.)

# melting point (compound: COc1cc(/C=C/C(=O)/C=C(O)/C=C/c2ccc(N)cc2)ccc1O ) is 99 to 100 °C

# melting point (compound: COc1cc(/C=C/C(=O)/C=C(O)/C=C/c2ccc(C(F)(F)F)cc2)ccc1O ) is 158 to 160 °C

# melting point (compound: COc1cc(C=CC(O)=C2CCCC(=Cc3ccc(O)c(OC)c3)C2=O)ccc1O ) is 182 to 183 °C

# melting point (compound: COc1cc(/C=C/C(=O)/C=C(O)/C=C/c2ccccc2)ccc1O ) is 135 to 137 °C

# melting point (compound: COc1cc(C=CC(O)=CC(=O)C=Cc2cccnc2)ccc1O ) is 185 °C (dec.)

# melting point (compound: COc1cc(/C=C/C(=O)/C=C(O)/C=C/c2ccc(NC(C)=O)cc2)ccc1O ) is 183 to 185 °C

# melting point (compound: COc1cc(/C=C/C(=O)/C=C(O)/C=C/c2ccc([N+](=O)[O-])cc2)ccc1O ) is 204 to 205 °C

# melting point (compound: COc1ccc(C=CC(=O)C=C(O)C=Cc2ccc(OC)c(O)c2)cc1O ) is 182 to 183 °C

# melting point (compound: COc1ccc(/C=C/C(O)=C/C(=O)/C=C/c2ccc(O)c(OC)c2)cc1 ) is 143 to 145 °C

# melting point (compound: CCOc1cc(/C=C/C(O)=C/C(=O)/C=C/c2ccc(O)c(OC)c2)ccc1O ) is 182 to 183 °C

# melting point (compound: COc1cc(/C=C/C(=O)/C=C(O)/C=C/c2ccc(Br)cc2)ccc1O ) is 148 to 149 °C

# melting point (compound: COc1ccc(/C=C/C(O)=C/C(=O)/C=C/c2ccc(O)c(OC)c2)cc1O ) is 137 to 140 °C

# melting point (compound: COC(=O)CCCOc1ccc(C=CC(=O)C=C(O)C=Cc2ccc(O)c(OC)c2)cc1OC ) is 100 to 101 °C

# melting point (compound: COc1ccc(/C=C/C(O)=C/C(=O)/C=C/c2ccc(OC)c(OC)c2)cc1O ) is 155 to 158 °C

* * *

Give measured IC50 for each item. Keep answers brief.
Give the value in nM but do not write nM after it.

For COc1cc(/C=C/C(=O)/C=C(O)/C=C/c2ccc(Br)cc2)ccc1O on UniProt P62575, measured IC50 was 1000

For COc1cc(/C=C/C(=O)/C=C(O)/C=C/c2ccc(F)cc2)ccc1O on UniProt P62575, measured IC50 was 1800

For COc1cc(/C=C/C(=O)/C=C(O)/C=C/c2ccc(C(F)(F)F)cc2)ccc1O on UniProt P62575, measured IC50 was 1000

For O=C(C=Cc1ccc(O)c(O)c1)C=C(O)C=Cc1ccc(O)c(O)c1 on UniProt P62575, measured IC50 was 1500

For COc1ccc(/C=C/C(O)=C/C(=O)/C=C/c2ccc(O)c(OC)c2)cc1O on UniProt P62575, measured IC50 was 1000

For COc1cc(/C=C/C(=O)/C=C(O)/C=C/c2ccc(O)c(OC)c2)ccc1O on UniProt P62575, measured IC50 was 600

Sourced from paper PMC6104608
